The values you see were collected from paper PMC10714399.

System: Staphylococcus aureus NCTC 13373 (mecA-positive; methicillin-resistant)
run_description: In vitro antibacterial activity, MIC (UCL School of Pharmacy assay), MRSA
Assay type: cell-based
Description: Staphylococcus aureus NCTC 13373 (mecA-positive; methicillin-resistant, NCTC 13373) was supplied by the National Collection of Type Cultures (NCTC), Public Health England, United Kingdom. […] A suspension of each organism was prepared from an overnight plate culture (tryptone soya agar) in phosphate-buffered saline (PBS) and adjusted to an absorbance reading at 600 nm of 0.1, which is approximately equivalent to 1 × 10^8 colony-forming units (CFU) per mL. […]
Listing: MRSA MIC of selected molecules

Example results:
{"smiles_record": "Cc1ccc(-c2c(-c3ccccn3)nc3cc(C(N)=O)ccn23)cc1", "study_target": "Staphylococcus aureus NCTC 13373 (mecA-positive; methicillin-resistant)", "MRSA MIC": "> 32 µg/mL"}
{"smiles_record": "c1ccc(-c2nc3ncccn3c2-c2ccc3c(c2)OCO3)nc1", "study_target": "Staphylococcus aureus NCTC 13373 (mecA-positive; methicillin-resistant)", "MRSA MIC": "> 32 µg/mL"}
{"smiles_record": "N#Cc1ccc(-c2nc(-c3ccccn3)c[nH]2)cc1", "study_target": "Staphylococcus aureus NCTC 13373 (mecA-positive; methicillin-resistant)", "MRSA MIC": "> 32 µg/mL"}
{"smiles_record": "CC(C)CN(c1ccc(F)cc1)c1c(-c2ccccn2)nc2cc(F)ccn12", "study_target": "Staphylococcus aureus NCTC 13373 (mecA-positive; methicillin-resistant)", "MRSA MIC": "8 µg/mL"}
{"smiles_record": "c1ccc(-c2nc3n(c2-c2ccc4sccc4c2)CCC3)nc1", "study_target": "Staphylococcus aureus NCTC 13373 (mecA-positive; methicillin-resistant)", "MRSA MIC": "4 µg/mL"}

q: Look up and state reported MRSA MIC for Cc1ccc2nc(-c3ccccn3)c(Nc3ccc4c(c3)OCCO4)n2c1
a: 8 µg/mL
